// provenance: ChEMBL document CHEMBL1137708

# TEST METHOD NOTES: Inhibition of SDS-activated 20S proteasome activity in rabbit muscle
# Format: tissue-based, Oryctolagus cuniculus, Muscle tissue
MEASURED ENDPOINT: pKi

# MOLECULE, RESULT NUMBER
data = [
    ("CC(C)C[C@H](NC(=O)[C@H](Cc1cccc2ccccc12)NC(=O)N1CCOCC1)B1OCCNCCO1", 9.82),
    ("CC(C)C[C@H](NC(=O)[C@H](Cc1ccccc1)NC(=O)c1ccccc1)B(O)O", 9.82),
    ("CC(C)CC(NC(=O)[C@H](Cc1cccc2ccccc12)NS(=O)(=O)c1cccc2cccnc12)B(O)O (single isomer, unassigned)", 8.77),
    ("CC(C)C[C@H](NC(=O)[C@H](Cc1cccc2ccccc12)NC(=O)C1CCCCC1)B(O)O", 10.52),
    ("CC(C)C[C@H](NC(=O)[C@H](Cc1cccnc1)NS(C)(=O)=O)B(O)O", 8.2),
    ("CC(C)C[C@H](NC(=O)[C@H](Cc1ccccc1)NC(=O)c1ccoc1)B(O)O", 9.77),
    ("CC(C)CC(NC(=O)C(CC(C)C)NC(=O)OCc1ccccc1)B1O[C@@H]2[C@H]3C[C@@H](C[C@]2(C)O1)C3(C)C (single isomer, unassigned)", 6.92),
    ("CC(C)C[C@H](NC(=O)[C@H](Cc1c[nH]c2ccccc12)NS(C)(=O)=O)B(O)O", 8.24),
    ("CC(C)C[C@H](NC(=O)[C@H](Cc1c[nH]cn1)NC(=O)OCc1ccccc1)B(O)O", 7.6),
    ("CC(C)C[C@H](NC(=O)[C@H](CC(C)C)NC(=O)OCc1ccccc1)B(O)O", 8.52),
    ("CC(C)C[C@H](NC(=O)[C@H](Cc1c[nH]c2ccccc12)NC(=O)N1CCOCC1)B(O)O", 8.52),
    ("CC(C)C[C@H](NC(=O)[C@H](Cc1ccc2ccccc2n1)NC(=O)N1CCOCC1)B(O)O", 8.66),
    ("CC(C)C[C@H](NC(=O)[C@H](Cc1ccc(OCc2ccccc2)cc1)NC(=O)N1CCOCC1)B(O)O", 9.64),
    ("CB(C)[C@H](CC(C)C)NC(=O)[C@H](CCc1ccccc1)NC(=O)N1CCOCC1", 8.66),
    ("CC(C)C[C@H](NC(=O)[C@H](Cc1cccc2ccccc12)NC(=O)OCc1ccccc1)B(O)O", 10.08),
    ("CC(C)C[C@H](NC(=O)[C@H](Cc1ccccc1)NC(=O)N1CCOCC1)B(O)O", 9.09),
    ("CC(C)C[C@H](NC(=O)[C@H](Cc1ccccc1)NC(=O)c1ccccn1)B(O)O", 9.38),
    ("CC(C)C[C@H](NC(=O)[C@@H](N)Cc1cccc2ccccc12)B(O)O", 8.12),
]
